Origin of the recorded values: patent US10155760B2

systemUnderTest: UniProtKB Q2M2I8
Sequence (Q2M2I8 whole entry): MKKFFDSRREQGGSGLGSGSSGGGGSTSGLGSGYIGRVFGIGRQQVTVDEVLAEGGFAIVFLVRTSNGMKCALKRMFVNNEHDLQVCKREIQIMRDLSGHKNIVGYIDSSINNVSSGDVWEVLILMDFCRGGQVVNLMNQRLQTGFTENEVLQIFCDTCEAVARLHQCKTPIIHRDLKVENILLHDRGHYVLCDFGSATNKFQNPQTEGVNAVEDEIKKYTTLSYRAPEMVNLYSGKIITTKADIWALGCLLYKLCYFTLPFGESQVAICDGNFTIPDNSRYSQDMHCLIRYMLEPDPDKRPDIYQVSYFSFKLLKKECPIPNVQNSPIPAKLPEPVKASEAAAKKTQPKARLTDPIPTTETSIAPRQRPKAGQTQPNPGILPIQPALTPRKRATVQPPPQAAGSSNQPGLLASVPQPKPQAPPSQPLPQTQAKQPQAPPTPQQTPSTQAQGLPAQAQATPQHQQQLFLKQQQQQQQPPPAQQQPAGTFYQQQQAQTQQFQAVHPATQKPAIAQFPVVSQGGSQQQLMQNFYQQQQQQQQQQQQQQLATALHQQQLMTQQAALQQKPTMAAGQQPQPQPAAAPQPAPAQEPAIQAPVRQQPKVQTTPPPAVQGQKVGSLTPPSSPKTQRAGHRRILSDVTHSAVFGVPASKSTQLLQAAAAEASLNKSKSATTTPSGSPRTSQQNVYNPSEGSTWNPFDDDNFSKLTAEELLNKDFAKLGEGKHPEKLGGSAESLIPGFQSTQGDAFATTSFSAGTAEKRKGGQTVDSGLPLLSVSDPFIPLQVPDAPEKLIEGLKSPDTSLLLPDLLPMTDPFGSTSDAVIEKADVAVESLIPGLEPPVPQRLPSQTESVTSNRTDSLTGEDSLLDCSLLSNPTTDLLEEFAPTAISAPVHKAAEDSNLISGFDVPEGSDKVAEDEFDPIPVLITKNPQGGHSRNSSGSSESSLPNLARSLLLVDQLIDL
propertyLabel: IC50 (nM)

[
  {
    "molecule": "CC(C)C[C@](C)(N)COc1ccc(-c2ccnc3cc(F)ccc23)nc1Cl [Example 136]",
    "propertyLabel": "IC50",
    "measuredValue": 4.8
  }
]
